Sourced from ChEMBL document CHEMBL1275349

test protocol: Agonist activity at NAADP receptor in sea urchin egg homogenate assessed as induction of Ca2+ release by Fluo-3 staining based fluorimetric assay
Type: functional, Strongylocentrotus purpuratus
Please respond with reported pEC50 for every item in the list.
One number for each entry, as −log10 of the molar value.

Could you tell me pEC50 for each of these compounds? They are listed below.
1. Nc1cc(C(=O)[O-])c[n+]([C@H]2O[C@@H](COP(=O)(O)OP(=O)(O)OC[C@H]3O[C@@H](n4cnc5c(N)ncnc54)[C@H](OP(=O)(O)O)[C@@H]3O)[C@H](O)[C@@H]2O)c1
2. CCc1cc(C(=O)[O-])c[n+]([C@H]2O[C@@H](COP(=O)(O)OP(=O)(O)OC[C@H]3O[C@@H](n4cnc5c(N)ncnc54)[C@H](OP(=O)(O)O)[C@@H]3O)[C@H](O)[C@@H]2O)c1
3. Cc1cc[n+]([C@H]2O[C@@H](COP(=O)(O)OP(=O)(O)OC[C@H]3O[C@@H](n4cnc5c(N)ncnc54)[C@H](OP(=O)(O)O)[C@@H]3O)[C@H](O)[C@@H]2O)cc1C(=O)[O-]

7.56
6.45
4.37

For the compound `Cc1cc(C(=O)[O-])c[n+]([C@H]2O[C@@H](COP(=O)(O)OP(=O)(O)OC[C@H]3O[C@@H](n4cnc5c(N)ncnc54)[C@H](OP(=O)(O)O)[C@@H]3O)[C@H](O)[C@@H]2O)c1` , what pEC50 is on record?
7.37
